assay-text: Pharmacokinetics in rats after single i.v. dose
Assay type: in vivo, Male Wistar rats
run-parameters: rat, in vivo, iv, plasma, single i.v. dose 0.515 mg/kg, n = 4
Numbered stars: 1 amine (or outer) side, 2 acyl side, 3 side chain; on linkers, the order of the positions; unused ones are H or OH. Bridge positions count the residues as written; N and C are the ends. Square brackets hold non-standard residues; d marks the D form. Peptide text beside a SMILES is read from it. CO = O=C([*:1])[*:2]; Nlys = NCCCCNCC(=O)O
measure-name: AUC (ng·h/mL)
Write the number in ng·h/mL without appending the unit.

What does the data say about its AUC? Entry: CSCC[C@@H]1NC(=O)[C@H]([C@@H](C)O)NC(=O)CN(C(=O)[C@@H](N)CCCCN)CCCCNC(=O)NCCCCN(CC(=O)N[C@@H](CC(C)C)C(N)=O)C(=O)[C@H](CC(=O)O)NC(=O)[C@H](CC(C)C)NC1=O [visabron c (4–4)] (H-K[Nlys]TMLD[Nlys]L-NH2; linker 2-7 via CO)
777
